These measurements were taken from patent US4656166A.

# System: Serrtia liquefaciens SL 1326 S
# experimental-details: MIC on strain not producing beta-lactamase, Serratia liquefaciens SL 1326 S (Table IV)
# Format: cell-based
# experimental-parameters: SL1326S, not producing beta-lactamases
Reported MIC by item:

{"molecule": "CC(C)(O/N=C(\\C(=O)NC1C(=O)N2C(C(=O)O)=C(COC(=O)CCCN)C[S+]([O-])C12)c1csc(N)n1)C(=O)O (stereo not drawn)", "MIC": "≤ 0.12 µg/mL"}
{"molecule": "CC(N)CC(=O)OCC1=C(C(=O)O)N2C(=O)C(NC(=O)C(=NOC(C)(C)C(=O)O)c3csc(N)n3)C2[S+]([O-])C1 (stereo not drawn)", "MIC": "0.06 µg/mL"}
{"molecule": "CC(C)(O/N=C(\\C(=O)NC1C(=O)N2C(C(=O)O)=C(COC(=O)c3csc(NC(=O)CN)n3)C[S+]([O-])C12)c1csc(N)n1)C(=O)O (stereo not drawn)", "MIC": "≤ 0.0312 µg/mL"}
{"molecule": "CC(C)(ON=C(C(=O)NC1C(=O)N2C(C(=O)O)=C(COC(=O)C3CCCNC3)C[S+]([O-])C12)c1csc(N)n1)C(=O)O (stereo not drawn)", "MIC": "≤ 0.12 µg/mL"}
{"molecule": "CC(C)(ON=C(C(=O)NC1C(=O)N2C(C(=O)O)=C(CSC(=O)c3ccc(CN)cc3)C[S+]([O-])C12)c1csc(N)n1)C(=O)O (stereo not drawn)", "MIC": "≤ 0.06 µg/mL"}
{"molecule": "CC(C)(O/N=C(\\C(=O)NC1C(=O)N2C(C(=O)O)=C(COC(=O)CCCCN)C[S+]([O-])C12)c1csc(N)n1)C(=O)O (stereo not drawn)", "MIC": "≤ 0.12 µg/mL"}

----------
# System: Escherichia coli SOL 90
# experimental-details: MIC, in vitro dilution method, Escherichia coli SOL 90 (Table III)
# Assay type: cell-based
# experimental-parameters: SOL90; Escherichia coli SOL 90; dilution method; read-out: MIC

{"compound": "CC(C)(CN)C(=O)OCC1=C(C(=O)O)N2C(=O)C(NC(=O)/C(=N\\OC(C)(C)C(=O)O)c3csc(N)n3)C2[S+]([O-])C1 (stereo not drawn)", "unit-name": "µg/mL", "MIC": 1}
{"compound": "CC(C)(O/N=C(\\C(=O)NC1C(=O)N2C(C(=O)O)=C(COC(=O)c3cccc(NC(=O)CN)c3)C[S+]([O-])C12)c1csc(N)n1)C(=O)O (stereo not drawn)", "unit-name": "µg/mL", "MIC": 0.5}
{"compound": "CC(ON=C(C(=O)NC1C(=O)N2C(C(=O)O)=C(CSC(=O)c3ccc(CN)cc3)C[S+]([O-])C12)c1csc(N)n1)C(=O)O (stereo not drawn)", "unit-name": "µg/mL", "MIC": 0.25}
{"compound": "CC(C)(ON=C(C(=O)NC1C(=O)N2C(C(=O)O)=C(COC(=O)C3CCN(C(=O)CCN)CC3)C[S+]([O-])C12)c1csc(N)n1)C(=O)O (stereo not drawn)", "unit-name": "µg/mL", "MIC": 0.25}
{"compound": "CC(ON=C(C(=O)NC1C(=O)N2C(C(=O)O)=C(CSC(=O)C3CCNCC3)C[S+]([O-])C12)c1csc(N)n1)C(=O)O (stereo not drawn)", "unit-name": "µg/mL", "MIC": 0.5}
{"compound": "CC(C)(O/N=C(\\C(=O)NC1C(=O)N2C(C(=O)O)=C(COC(=O)CCCCCCCN)C[S+]([O-])C12)c1csc(N)n1)C(=O)O (stereo not drawn)", "unit-name": "µg/mL", "MIC": 0.5}

----------
# Test system: Escherichia coli SOL 90
# experimental-details: MIC, in vitro dilution method, Escherichia coli SOL 90 (Table III)
# Type: cell-based
# experimental-parameters: SOL90; Escherichia coli SOL 90; dilution method; read-out: MIC
result-type: MIC (µg/mL)

{"molecule": "CC(C)(O/N=C(\\C(=O)NC1C(=O)N2C(C(=O)O)=C(COC(=O)CC3CCCCN3)C[S+]([O-])C12)c1csc(N)n1)C(=O)O (stereo not drawn) [42 371]", "bound-type": "=", "measured-number": 0.5}
{"molecule": "CC(C)NCc1ccc(C(=O)OCC2=C(C(=O)O)N3C(=O)C(NC(=O)/C(=N\\OC(C)(C)C(=O)O)c4csc(N)n4)C3[S+]([O-])C2)cc1 (stereo not drawn) [42 397]", "bound-type": "≤", "measured-number": 0.125}
{"molecule": "CC(C)(O/N=C(\\C(=O)NC1C(=O)N2C(C(=O)O)=C(COC(=O)[C@H]3CC[C@H](CN)CC3)C[S+]([O-])C12)c1csc(N)n1)C(=O)O (stereo partly drawn) [42 117]", "bound-type": "=", "measured-number": 0.25}
{"molecule": "CC(C)(O/N=C(\\C(=O)NC1C(=O)N2C(C(=O)O)=C(COC(=O)CC3CCNCC3)C[S+]([O-])C12)c1csc(N)n1)C(=O)O (stereo not drawn) [42 474]", "bound-type": "=", "measured-number": 0.25}
{"molecule": "CC(C)(ON=C(C(=O)NC1C(=O)N2C(C(=O)O)=C(CSC(=O)c3ccc(CN)cc3)C[S+]([O-])C12)c1csc(N)n1)C(=O)O (stereo not drawn) [compound 42119]", "bound-type": "=", "measured-number": 0.5}
{"molecule": "CC(C)(ON=C(C(=O)NC1C(=O)N2C(C(=O)O)=C(CSC(=O)C3CCCNC3)C[S+]([O-])C12)c1csc(N)n1)C(=O)O (stereo not drawn) [compound 42074]", "bound-type": "=", "measured-number": 1}

----------
# System: Enterobacter RO 154
# experimental-details: MIC, in vitro dilution method, Enterobacter RO 154 (Table III)
# Type: cell-based
# experimental-parameters: RO154; Enterobacter RO 154; dilution method; read-out: MIC

{"molecule": "CC(C)(CN)C(=O)SCC1=C(C(=O)O)N2C(=O)C(NC(=O)C(=NOC(C)(C)C(=O)O)c3csc(N)n3)C2[S+]([O-])C1 (stereo not drawn)", "system": "Enterobacter RO 154", "MIC [µg/mL]": 4}
{"molecule": "CC(C)(ON=C(C(=O)NC1C(=O)N2C(C(=O)O)=C(COC(=O)C3CCN(C(=O)CCCN)CC3)C[S+]([O-])C12)c1csc(N)n1)C(=O)O (stereo not drawn)", "system": "Enterobacter RO 154", "MIC [µg/mL]": 2}
{"molecule": "CNCc1ccc(C(=O)OCC2=C(C(=O)O)N3C(=O)C(NC(=O)C(=NOC(C)(C)C(=O)O)c4csc(N)n4)C3[S+]([O-])C2)cc1F (stereo not drawn)", "system": "Enterobacter RO 154", "MIC [µg/mL]": 2}
{"molecule": "CC(C)[C@H](N)C(=O)OCC1=C(C(=O)O)N2C(=O)C(NC(=O)/C(=N\\OC(C)(C)C(=O)O)c3csc(N)n3)C2[S+]([O-])C1 (stereo partly drawn)", "system": "Enterobacter RO 154", "MIC [µg/mL]": 8}
{"molecule": "CC(C)(O/N=C(\\C(=O)NC1C(=O)N2C(C(=O)O)=C(COC(=O)CCCCCCCN)C[S+]([O-])C12)c1csc(N)n1)C(=O)O (stereo not drawn)", "system": "Enterobacter RO 154", "MIC [µg/mL]": 4}
{"molecule": "CCC(C)C(N)C(=O)OCC1=C(C(=O)O)N2C(=O)C(NC(=O)C(=NOC(C)(C)C(=O)O)c3csc(N)n3)C2[S+]([O-])C1 (stereo not drawn)", "system": "Enterobacter RO 154", "MIC [µg/mL]": 8}

----------
# Test system: Enterobacter RO 154
# experimental-details: MIC, in vitro dilution method, Enterobacter RO 154 (Table III)
# Type: cell-based
# experimental-parameters: RO154; Enterobacter RO 154; dilution method; read-out: MIC
Listing of entries alongside the reported MIC.
result-type: MIC (µg/mL)

{"compound": "Nc1nc(C(=NOC2(C(=O)O)CCC2)C(=O)NC2C(=O)N3C(C(=O)O)=C(CSC(=O)C4CCNCC4)C[S+]([O-])C23)cs1 (stereo not drawn) [compound 42219]", "result-type": "MIC", "bound-type": "=", "measured-number": 0.5}
{"compound": "CC(C)(O/N=C(\\C(=O)NC1C(=O)N2C(C(=O)O)=C(COC(=O)c3csc(NC(=O)CN)n3)C[S+]([O-])C12)c1csc(N)n1)C(=O)O (stereo not drawn) [42 466]", "result-type": "MIC", "bound-type": "=", "measured-number": 0.5}
{"compound": "CC(C)(ON=C(C(=O)NC1C(=O)N2C(C(=O)O)=C(COC(=O)c3csc(NC(=O)CCN)n3)C[S+]([O-])C12)c1csc(N)n1)C(=O)O (stereo not drawn) [42 587]", "result-type": "MIC", "bound-type": "=", "measured-number": 8}
{"compound": "CC(C)(O/N=C(\\C(=O)NC1C(=O)N2C(C(=O)O)=C(COC(=O)CCCCCN)C[S+]([O-])C12)c1csc(N)n1)C(=O)O (stereo not drawn) [41 855]", "result-type": "MIC", "bound-type": "=", "measured-number": 2}
{"compound": "CC(O/N=C(\\C(=O)NC1C(=O)N2C(C(=O)O)=C(COC(=O)c3ccc(CN)cc3)C[S+]([O-])C12)c1csc(N)n1)C(=O)O (stereo not drawn) [42 216]", "result-type": "MIC", "bound-type": "≤", "measured-number": 0.12}
{"compound": "CC(CN)C(=O)OCC1=C(C(=O)O)N2C(=O)C(NC(=O)C(=NOC(C)(C)C(=O)O)c3csc(N)n3)C2[S+]([O-])C1 (stereo not drawn) [42 025]", "result-type": "MIC", "bound-type": "=", "measured-number": 4}
